Molecular target: CDK9/Cyclin T1 complex (Homo sapiens, UniProt P50750)
Sequence (P50750 whole entry): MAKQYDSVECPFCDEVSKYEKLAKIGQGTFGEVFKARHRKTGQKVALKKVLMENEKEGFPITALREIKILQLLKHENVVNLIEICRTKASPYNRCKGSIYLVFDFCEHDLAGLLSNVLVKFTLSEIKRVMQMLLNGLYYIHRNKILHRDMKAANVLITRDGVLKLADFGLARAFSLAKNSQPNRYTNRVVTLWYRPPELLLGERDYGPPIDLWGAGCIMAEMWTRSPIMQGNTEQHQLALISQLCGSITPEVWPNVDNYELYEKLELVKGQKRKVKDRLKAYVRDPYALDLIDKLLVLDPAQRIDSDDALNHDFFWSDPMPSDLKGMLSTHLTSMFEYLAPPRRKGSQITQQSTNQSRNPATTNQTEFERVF
Sequence (O60563 whole entry partner): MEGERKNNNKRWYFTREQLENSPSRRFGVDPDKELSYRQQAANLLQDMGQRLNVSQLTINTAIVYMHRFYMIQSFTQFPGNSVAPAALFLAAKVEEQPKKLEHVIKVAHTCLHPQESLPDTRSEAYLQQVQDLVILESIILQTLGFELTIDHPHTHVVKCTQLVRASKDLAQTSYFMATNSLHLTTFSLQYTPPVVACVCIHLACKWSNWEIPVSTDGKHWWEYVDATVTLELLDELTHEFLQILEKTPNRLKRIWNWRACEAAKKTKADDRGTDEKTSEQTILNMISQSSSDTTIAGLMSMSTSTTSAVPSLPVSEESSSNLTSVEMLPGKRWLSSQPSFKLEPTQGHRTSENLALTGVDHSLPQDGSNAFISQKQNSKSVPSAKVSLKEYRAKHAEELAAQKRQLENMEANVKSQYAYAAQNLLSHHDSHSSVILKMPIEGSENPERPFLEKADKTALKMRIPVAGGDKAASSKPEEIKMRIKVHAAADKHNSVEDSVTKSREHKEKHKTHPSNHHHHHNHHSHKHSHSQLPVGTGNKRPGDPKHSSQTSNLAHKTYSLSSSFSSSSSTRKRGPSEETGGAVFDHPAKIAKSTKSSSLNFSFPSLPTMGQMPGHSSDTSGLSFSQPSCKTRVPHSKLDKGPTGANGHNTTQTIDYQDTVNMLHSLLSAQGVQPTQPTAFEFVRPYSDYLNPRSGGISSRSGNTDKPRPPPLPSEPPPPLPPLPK
Assay: CDK9 kinase inhibition assay (Caliper/LabChip EZ Reader)
Settings: CDK9/Cyclin T1 8 nM, ATP 2 mM, 15 min at 27° C.

- compound: "CC1CCNCC1Nc1ncc(Cl)c(-c2c[nH]c3ccccc23)n1 (centres unmarked) [Compound 125]"
  IC50: "≥ 5 µM"
- compound: "N#Cc1ccc2c(-c3nc(NC4CCCNC4)ncc3C(F)(F)F)c[nH]c2n1 (centres unmarked)"
  IC50: "0.2 to 5 µM"
- compound: "Cc1cccc2c(-c3nc(NC4CCCNC4)ncc3C(F)(F)F)c[nH]c12 (centres unmarked)"
  IC50: "0.2 to 5 µM"
- compound: "CC(C)C1CC[C@H](Nc2ncc(C(F)(F)F)c(-c3c[nH]c4ccccc34)n2)CN1 (some centres unmarked)"
  IC50: "≥ 5 µM"
- compound: "Fc1cc2[nH]cc(-c3nc(NC4CCCNC4)ncc3Cl)c2cc1F (centres unmarked)"
  IC50: "0.02 to 0.2 µM"
- compound: "Cc1noc(C)c1-c1ccc2c(-c3nc(N[C@H]4CCCNC4)ncc3C(F)(F)F)c[nH]c2c1"
  IC50: "0.2 to 5 µM"
- compound: "N#Cc1ccc2c(-c3nc(N[C@@H]4CNC[C@H](O)C4)ncc3C(F)(F)F)c[nH]c2c1"
  IC50: "≥ 5 µM"
- compound: "CCc1cnc(NC2CCCNC2)nc1-c1c[nH]c2c(S(C)(=O)=O)c(C#N)ccc12 (centres unmarked)"
  IC50: "≥ 5 µM"

----------
Listed below: IC50 values for each entry.
Target: CDK7/Cyclin H/MAT1 complex (Homo sapiens, UniProt P50613)
Sequence (P50613 whole entry): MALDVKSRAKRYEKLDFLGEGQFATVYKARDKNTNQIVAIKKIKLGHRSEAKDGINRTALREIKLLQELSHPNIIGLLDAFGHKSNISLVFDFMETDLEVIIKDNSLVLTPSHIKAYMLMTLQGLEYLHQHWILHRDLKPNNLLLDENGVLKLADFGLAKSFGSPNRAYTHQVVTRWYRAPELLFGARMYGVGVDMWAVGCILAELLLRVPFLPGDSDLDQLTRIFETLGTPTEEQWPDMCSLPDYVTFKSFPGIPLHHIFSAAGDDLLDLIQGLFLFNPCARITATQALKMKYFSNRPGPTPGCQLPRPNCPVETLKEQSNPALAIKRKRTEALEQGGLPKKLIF
Sequence (P51946 whole entry partner): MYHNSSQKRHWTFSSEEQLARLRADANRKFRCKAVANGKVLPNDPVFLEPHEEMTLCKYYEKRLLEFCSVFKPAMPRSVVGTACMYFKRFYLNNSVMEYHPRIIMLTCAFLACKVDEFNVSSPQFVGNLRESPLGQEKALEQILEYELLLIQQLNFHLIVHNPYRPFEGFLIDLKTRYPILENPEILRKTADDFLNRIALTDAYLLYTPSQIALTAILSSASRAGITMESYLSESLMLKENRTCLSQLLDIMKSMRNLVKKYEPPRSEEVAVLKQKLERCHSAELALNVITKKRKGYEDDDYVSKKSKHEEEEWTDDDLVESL
Sequence (P51948 whole entry partner): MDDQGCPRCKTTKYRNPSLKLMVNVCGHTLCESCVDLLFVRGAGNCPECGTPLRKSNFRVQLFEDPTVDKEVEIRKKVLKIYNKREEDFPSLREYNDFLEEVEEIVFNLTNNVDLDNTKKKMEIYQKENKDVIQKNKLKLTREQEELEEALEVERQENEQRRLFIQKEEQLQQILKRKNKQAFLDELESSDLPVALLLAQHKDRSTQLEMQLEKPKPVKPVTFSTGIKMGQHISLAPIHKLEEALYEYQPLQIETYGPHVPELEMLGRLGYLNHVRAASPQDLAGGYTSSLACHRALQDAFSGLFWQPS
Experiment: CDK7 kinase inhibition assay (Caliper/LabChip EZ Reader)
Conditions: CDK7/Cyclin H/MAT1 6 nM, ATP 2 mM, 35 min at 27° C.

- compound: "NS(=O)(=O)c1ccc(-c2ccc3c(-c4nc(N[C@H]5CCCNC5)ncc4C(F)(F)F)c[nH]c3c2)cc1"
  IC50: "20 to 200 nM"
- compound: "CC1(O)CCN(C(=O)c2ccc3c(-c4nc(NC5CCCNC5)ncc4C(F)(F)F)c[nH]c3c2)C1 (stereo not shown) [Compound 220]"
  IC50: "< 20 nM"
- compound: "CS(=O)(=O)Cc1ccc2c(-c3nc(NC4CCCNC4)ncc3C(F)(F)F)c[nH]c2c1 (stereo not shown)"
  IC50: "< 20 nM"
- compound: "CC(C)C1CCC(Nc2nccc(-c3c[nH]c4ccccc34)n2)CN1 (stereo not shown)"
  IC50: "20 to 200 nM"

----------
Target: CDK12 (aa686-1082)/Cyclin K complex (Homo sapiens, UniProt Q9NYV4)
Construct: CDK12 (aa686-1082)/Cyclin K complex
Sequence (Q9NYV4 686-1082): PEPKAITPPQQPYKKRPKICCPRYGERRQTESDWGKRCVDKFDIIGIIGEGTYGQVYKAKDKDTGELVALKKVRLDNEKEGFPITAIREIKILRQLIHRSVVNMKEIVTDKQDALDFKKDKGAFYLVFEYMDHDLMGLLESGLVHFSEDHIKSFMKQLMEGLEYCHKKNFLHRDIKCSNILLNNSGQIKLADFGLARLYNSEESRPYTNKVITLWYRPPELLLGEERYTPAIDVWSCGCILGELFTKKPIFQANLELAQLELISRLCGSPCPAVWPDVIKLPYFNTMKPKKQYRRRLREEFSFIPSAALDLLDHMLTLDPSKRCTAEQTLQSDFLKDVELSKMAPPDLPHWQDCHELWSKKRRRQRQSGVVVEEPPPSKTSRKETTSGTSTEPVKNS
Sequence (O75909 whole entry partner, the tested form may be a part): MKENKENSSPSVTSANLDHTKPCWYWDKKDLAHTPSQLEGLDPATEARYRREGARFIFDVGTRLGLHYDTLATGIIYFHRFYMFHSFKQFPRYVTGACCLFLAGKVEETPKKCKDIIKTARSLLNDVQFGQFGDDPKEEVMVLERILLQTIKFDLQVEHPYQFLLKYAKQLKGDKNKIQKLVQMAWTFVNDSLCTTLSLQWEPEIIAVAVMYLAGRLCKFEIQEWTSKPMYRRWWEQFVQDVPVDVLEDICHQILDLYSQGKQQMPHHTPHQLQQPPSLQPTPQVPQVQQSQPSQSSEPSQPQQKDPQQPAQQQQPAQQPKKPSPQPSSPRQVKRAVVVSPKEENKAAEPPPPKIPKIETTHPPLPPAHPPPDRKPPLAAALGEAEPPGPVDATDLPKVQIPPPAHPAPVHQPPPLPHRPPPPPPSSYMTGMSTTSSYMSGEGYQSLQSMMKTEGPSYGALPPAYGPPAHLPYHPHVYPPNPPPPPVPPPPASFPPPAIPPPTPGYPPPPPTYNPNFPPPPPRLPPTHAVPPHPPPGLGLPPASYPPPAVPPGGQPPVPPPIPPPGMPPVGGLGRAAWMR
Assay: CDK12 kinase inhibition assay (Caliper/LabChip EZ Reader)
Conditions: CDK12 (aa686-1082)/Cyclin K 50 nM, ATP 2 mM, 3 hr at 27° C.
Protocol: Compounds of the invention were assayed for inhibition of CDK7, CDK9, CDK12, and CDK2 activity at Biortus Biosciences (Jiangyin, Jiangsu Province, P.R. of China) using kinase assays for each CDK developed with a Caliper/LabChip EZ Reader (Perkin Elmer, Waltham, Mass.). […]
pIC50: −log10 of the molar value.
Listed below: pIC50 values for each entry.

- compound: "N#Cc1ccc2c(-c3nc(NC4CNCC(F)C4)ncc3C(F)(F)F)c[nH]c2c1 (centres unmarked)"
  pIC50: "5.30 to 6.70"
- compound: "CCOP(C)(=O)c1cccc2c(-c3nc(NC4CCCNC4)ncc3C(F)(F)F)c[nH]c12 (centres unmarked)"
  pIC50: "5.30 to 6.70"
- compound: "CCOP(=O)(OCC)c1ccc2[nH]cc(-c3nc(NC4CCCNC4)ncc3C(F)(F)F)c2c1 (centres unmarked)"
  pIC50: "≤ 5.30"
- compound: "FC(F)(F)c1cnc(NC2CCCNC2)nc1-c1c[nH]c2cc(-c3cccnc3)ccc12 (centres unmarked)"
  pIC50: "5.30 to 6.70"
- compound: "Cc1nc(-c2ccc3c(-c4nc(NC5CCCNC5)ncc4C(F)(F)F)c[nH]c3c2)nn1C (centres unmarked)"
  pIC50: "5.30 to 6.70"
- compound: "Cc1c(-c2ccc3c(-c4nc(NC5CCCNC5)ncc4C(F)(F)F)c[nH]c3c2)c[nH]c(=O)c1C#N (centres unmarked)"
  pIC50: "5.30 to 6.70"
- compound: "CC(O)c1cnc(NC2CCCNC2)nc1-c1c[nH]c2ccccc12 (centres unmarked) [Compound 247]"
  pIC50: "≤ 5.30"
- compound: "CC1CNCC(Nc2ncc(Cl)c(-c3c[nH]c4ccccc34)n2)C1 (centres unmarked) [Compound 182]"
  pIC50: "5.30 to 6.70"

----------
Target: CDK12 (aa686-1082)/Cyclin K complex (Homo sapiens, UniProt Q9NYV4)
Construct: CDK12 (aa686-1082)/Cyclin K complex
Assay: CDK12 kinase inhibition assay (Caliper/LabChip EZ Reader)
Details: CDK12 (aa686-1082)/Cyclin K 50 nM, ATP 2 mM, 3 hr at 27° C.
Listed below: IC50 values for each entry.
measured.property: IC50

- compound: "N#Cc1ccc2c(-c3nc(N[C@@H]4CCCNC4)ncc3C(F)(F)F)c[nH]c2c1-c1ccnnc1 [Compound 261]"
  target.entity: "CDK12 (aa686-1082)/Cyclin K complex (Homo sapiens, UniProt Q9NYV4)"
  measured.value: "0.2 to 5 µM"
- compound: "Cc1nc(-c2ccc3c(-c4nc(NC5CCCNC5)ncc4C(F)(F)F)c[nH]c3c2)n[nH]1 (centres unmarked) [Compound 235]"
  target.entity: "CDK12 (aa686-1082)/Cyclin K complex (Homo sapiens, UniProt Q9NYV4)"
  measured.value: "0.2 to 5 µM"
- compound: "CCS(=O)(=O)c1ccc2c(-c3nc(NC4CCCNC4)ncc3C(F)(F)F)c[nH]c2c1 (centres unmarked) [Compound 274]"
  target.entity: "CDK12 (aa686-1082)/Cyclin K complex (Homo sapiens, UniProt Q9NYV4)"
  measured.value: "0.2 to 5 µM"
- compound: "CC1CCC(Nc2ncc(Cl)c(-c3c[nH]c4ccccc34)n2)CN1 (centres unmarked) [Compound 129]"
  target.entity: "CDK12 (aa686-1082)/Cyclin K complex (Homo sapiens, UniProt Q9NYV4)"
  measured.value: "0.2 to 5 µM"
- compound: "Fc1cccc2c(-c3nc(N[C@H]4CCCNC4)ncc3C(F)(F)F)n[nH]c12 [Compound 156]"
  target.entity: "CDK12 (aa686-1082)/Cyclin K complex (Homo sapiens, UniProt Q9NYV4)"
  measured.value: "0.2 to 5 µM"
- compound: "OCc1cncc(-c2ccc3c(-c4nc(NC5CCCNC5)ncc4C(F)(F)F)c[nH]c3c2)c1 (centres unmarked) [Compound 318]"
  target.entity: "CDK12 (aa686-1082)/Cyclin K complex (Homo sapiens, UniProt Q9NYV4)"
  measured.value: "0.2 to 5 µM"
- compound: "CCN1CC(Nc2ncc(C(F)(F)F)c(-c3c[nH]c4cc(S(C)(=O)=O)ccc34)n2)CC(C)(C)C1 (centres unmarked) [Compound 369]"
  target.entity: "CDK12 (aa686-1082)/Cyclin K complex (Homo sapiens, UniProt Q9NYV4)"
  measured.value: "≥ 5 µM"
- compound: "N#Cc1ccc2c(-c3nc(NC4CNCCC4O)ncc3C(F)(F)F)c[nH]c2c1 (centres unmarked) [Compound 355]"
  target.entity: "CDK12 (aa686-1082)/Cyclin K complex (Homo sapiens, UniProt Q9NYV4)"
  measured.value: "0.2 to 5 µM"
- compound: "FC(F)(F)c1cnc(NC2CCCNC2)nc1-c1c[nH]c2cc(-c3cn[nH]c3)ccc12 (centres unmarked) [Compound 188]"
  target.entity: "CDK12 (aa686-1082)/Cyclin K complex (Homo sapiens, UniProt Q9NYV4)"
  measured.value: "0.2 to 5 µM"
- compound: "FC(F)n1cc(-c2ccc3c(-c4nc(NC5CCCNC5)ncc4C(F)(F)F)c[nH]c3c2)cn1 (centres unmarked) [Compound 290]"
  target.entity: "CDK12 (aa686-1082)/Cyclin K complex (Homo sapiens, UniProt Q9NYV4)"
  measured.value: "0.2 to 5 µM"
- compound: "FC(F)(F)c1cnc(N[C@H]2CCCNC2)nc1-c1c[nH]c2cc(-c3ccc4ccncc4c3)ccc12 [Compound 325]"
  target.entity: "CDK12 (aa686-1082)/Cyclin K complex (Homo sapiens, UniProt Q9NYV4)"
  measured.value: "0.2 to 5 µM"
- compound: "C=Cc1cnc(NC2CCCNC2)nc1-c1c[nH]c2ccccc12 (centres unmarked) [Compound 218]"
  target.entity: "CDK12 (aa686-1082)/Cyclin K complex (Homo sapiens, UniProt Q9NYV4)"
  measured.value: "0.2 to 5 µM"
- compound: "CNC(=O)c1ccc2c(-c3nc(NC4CCCNC4)ncc3C(F)(F)F)c[nH]c2n1 (centres unmarked) [Compound 297]"
  target.entity: "CDK12 (aa686-1082)/Cyclin K complex (Homo sapiens, UniProt Q9NYV4)"
  measured.value: "0.2 to 5 µM"
- compound: "O=C(c1ccc2c(-c3nc(NC4CCCNC4)ncc3C(F)(F)F)c[nH]c2c1)N1CCC(O)(C(F)(F)F)C1 (centres unmarked) [Compound 299]"
  target.entity: "CDK12 (aa686-1082)/Cyclin K complex (Homo sapiens, UniProt Q9NYV4)"
  measured.value: "0.2 to 5 µM"
- compound: "CP(C)(=O)c1cccc2c(-c3nc(NC4CCCNC4)ncc3C(F)(F)F)c[nH]c12 (centres unmarked) [Compound 353]"
  target.entity: "CDK12 (aa686-1082)/Cyclin K complex (Homo sapiens, UniProt Q9NYV4)"
  measured.value: "0.2 to 5 µM"
- compound: "FC(F)(F)c1cnc(NC2CCC3(CC3)NC2)nc1-c1c[nH]c2ccccc12 (centres unmarked) [Compound 212]"
  target.entity: "CDK12 (aa686-1082)/Cyclin K complex (Homo sapiens, UniProt Q9NYV4)"
  measured.value: "0.2 to 5 µM"
- compound: "CCOP(=O)(OCC)c1ccc2c(-c3nc(NC4CCCNC4)ncc3C(F)(F)F)c[nH]c2c1 (centres unmarked) [Compound 187]"
  target.entity: "CDK12 (aa686-1082)/Cyclin K complex (Homo sapiens, UniProt Q9NYV4)"
  measured.value: "0.2 to 5 µM"
- compound: "N#Cc1cc2[nH]cc(-c3nc(NC4CCCNC4)ncc3C(F)(F)F)c2cc1F (centres unmarked) [Compound 197]"
  target.entity: "CDK12 (aa686-1082)/Cyclin K complex (Homo sapiens, UniProt Q9NYV4)"
  measured.value: "0.2 to 5 µM"
- compound: "Cn1cc(-c2nc(NC3CCCNC3)ncc2C(F)(F)F)c2cccc(C#N)c21 (centres unmarked) [Compound 279]"
  target.entity: "CDK12 (aa686-1082)/Cyclin K complex (Homo sapiens, UniProt Q9NYV4)"
  measured.value: "≥ 5 µM"
- compound: "CC(O)c1cnc(NC2CCCNC2)nc1-c1c[nH]c2ccccc12 (centres unmarked) [Compound 234]"
  target.entity: "CDK12 (aa686-1082)/Cyclin K complex (Homo sapiens, UniProt Q9NYV4)"
  measured.value: "≥ 5 µM"
- compound: "CS(=O)(=O)c1ccc2c(-c3nc(NC4CCCNC4)ncc3C(F)(F)F)c[nH]c2c1 (centres unmarked) [Compound 199]"
  target.entity: "CDK12 (aa686-1082)/Cyclin K complex (Homo sapiens, UniProt Q9NYV4)"
  measured.value: "0.2 to 5 µM"
- compound: "CCOP(=O)(OCC)c1cccc2c(-c3nc(NC4CCCNC4)ncc3C(F)(F)F)c[nH]c12 (centres unmarked) [Compound 168]"
  target.entity: "CDK12 (aa686-1082)/Cyclin K complex (Homo sapiens, UniProt Q9NYV4)"
  measured.value: "≥ 5 µM"
- compound: "CS(=O)(=O)Cc1ccc2c(-c3nc(NC4CCCNC4)ncc3C(F)(F)F)c[nH]c2c1 (centres unmarked) [Compound 219]"
  target.entity: "CDK12 (aa686-1082)/Cyclin K complex (Homo sapiens, UniProt Q9NYV4)"
  measured.value: "0.2 to 5 µM"
